Would you kindly list MIC for each of these compounds?
Tested on: Pseudomonas aeruginosa
PROTOCOL DETAILS: Antimicrobial activity against tetracycline-susceptible Pseudomonas aeruginosa isolate 111 by CLSI dilution method
Assay type: functional

For the compound `COc1c2c(c(O)c3cc(CN4CC(F)C4)ccc13)C(=O)C1=C(O)[C@]3(O)C(=O)C(C(N)=O)=C(O)[C@@H](N(C)C)[C@@H]3C[C@@H]1C2` , give its measured MIC value.
32 µg/mL

Fill in MIC for record `CNc1c2c(c(O)c3cc(CN4CCC4)ccc13)C(=O)C1=C(O)[C@]3(O)C(=O)C(C(N)=O)=C(O)[C@@H](N(C)C)[C@@H]3C[C@@H]1C2`
> 32 µg/mL

Name the recorded MIC of the item `CN(C)[C@@H]1C(O)=C(C(N)=O)C(=O)[C@@]2(O)C(O)=C3C(=O)c4c(c(Cl)c5ccc(F)cc5c4O)C[C@H]3C[C@@H]12` in your answer.
> 32 µg/mL

Consider the compound `CN(C)[C@@H]1C(O)=C(C(N)=O)C(=O)[C@@]2(O)C(O)=C3C(=O)c4c(c(Cl)c5ccc(CN6CCC6)cc5c4O)C[C@H]3C[C@@H]12` . State its measured MIC.
> 32 µg/mL

Please report the measured MIC for `CN(C)[C@@H]1C(O)=C(C(N)=O)C(=O)[C@@]2(O)C(O)=C3C(=O)c4c(cc5ccc(-c6cccnc6)cc5c4O)C[C@H]3C[C@@H]12`
> 32 µg/mL

Dear colleague, please send me the reported MIC for `CC(C)CNCc1ccc2cc3c(c(O)c2c1)C(=O)C1=C(O)[C@]2(O)C(=O)C(C(N)=O)=C(O)[C@@H](N(C)C)[C@@H]2C[C@@H]1C3` when you can.
32 µg/mL
